What pIC50 was measured for each of the following?
Test system: Z-138
Assay: Antiproliferative activity against human Z138 cells after 72 hrs by CellTiter Glo assay
Format: functional, cell-based
Conditions: Z-138, 72 h
Recall that pIC50 is obtained by taking minus log10 of the concentration measured in molar.

Return reported pIC50; argument: `O=C(N1CCN(c2ncnc3[nH]cc(Br)c23)CC1)C1(c2ccc(Cl)cc2)CCNCC1`
5.77

Follow-up entry: `CCn1c(-c2nonc2N)nc2c(C#CC(C)(C)O)ncc(OC[C@H]3CCCNC3)c21`
5.51

Repeat for the following compound: `O=C(Cc1ccc(Cl)cc1)N1CCN(c2ncnc3[nH]cc(Br)c23)CC1`
5.17

Same question, `O=C(N1CCN(c2ncnc3[nH]cc(Cl)c23)CC1)C1(c2ccc(Br)cc2)CCNCC1` this time
6.70

These entries and their values trace back to ChEMBL document CHEMBL4190265.
